Reported IC50 on Beta-adrenergic receptor kinase 1 (Bos taurus, UniProt P21146) for assorted compounds, compiled from publications.
Biological target: Beta-adrenergic receptor kinase 1 (Bos taurus, UniProt P21146)
Sequence (P21146 whole entry): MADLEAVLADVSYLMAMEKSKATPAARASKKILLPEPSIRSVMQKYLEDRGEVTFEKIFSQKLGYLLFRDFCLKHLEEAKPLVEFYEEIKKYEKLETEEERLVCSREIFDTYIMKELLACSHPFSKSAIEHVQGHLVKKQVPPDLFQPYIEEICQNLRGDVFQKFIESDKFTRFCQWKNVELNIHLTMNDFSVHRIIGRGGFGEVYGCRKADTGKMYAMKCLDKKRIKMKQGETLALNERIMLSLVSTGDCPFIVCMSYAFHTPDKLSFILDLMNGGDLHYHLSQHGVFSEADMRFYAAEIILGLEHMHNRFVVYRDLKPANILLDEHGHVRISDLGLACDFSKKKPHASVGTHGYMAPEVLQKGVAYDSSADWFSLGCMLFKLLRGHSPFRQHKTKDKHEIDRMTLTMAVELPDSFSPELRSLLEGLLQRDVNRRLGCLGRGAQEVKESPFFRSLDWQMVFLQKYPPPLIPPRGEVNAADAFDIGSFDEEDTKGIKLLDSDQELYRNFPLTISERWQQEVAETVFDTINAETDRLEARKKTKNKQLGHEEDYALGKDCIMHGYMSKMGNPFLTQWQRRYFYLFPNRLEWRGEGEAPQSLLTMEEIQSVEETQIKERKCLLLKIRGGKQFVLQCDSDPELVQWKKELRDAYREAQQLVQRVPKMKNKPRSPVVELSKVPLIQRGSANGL

Some compounds with recorded IC50:
Cc1[nH]c(/C=C2\C(=O)Nc3ccc(C(=O)N[C@H](C)c4ccc(F)cc4)cc32)c(C)c1NC(=O)[C@@H](C)O ... 600 µM
C=CS(=O)(=O)NCc1ccc(Nc2nc(Nc3ccccc3C(=O)NC)c3cc[nH]c3n2)c(OC)c1 ... > 100 µM
Cc1[nH]c(/C=C2\C(=O)Nc3ccc(C(=O)N[C@H](C)c4ccc(F)cc4)cc32)c(C)c1NC(=O)[C@@H](O)c1ccccc1 ... 90 µM

So what does the record say about IC50 for C=CS(=O)(=O)NCc1ccc(OC)c(Nc2nc(Nc3ccccc3C(=O)NC)c3cc[nH]c3n2)c1 ?
> 100 µM

So what does the record say about IC50 for CCC(=O)NCc1ccc(Nc2nc(Nc3ccccc3C(=O)NC)c3cc[nH]c3n2)c(OC)c1 ?
> 100 µM

So what does the record say about IC50 for CC(=O)C(=O)Nc1c(C)[nH]c(/C=C2\C(=O)Nc3ccc(C(=O)N[C@H](C)c4ccc(F)cc4)cc32)c1C ?
200 µM

So what does the record say about IC50 for COc1cc(NC(=O)/C=C/CN(C)C)ccc1Nc1nc(Nc2ccccc2C(N)=O)c2cc[nH]c2n1 ?
0.68 µM

So what does the record say about IC50 for C#CCCNC(=O)c1c(C)[nH]c(/C=C2\C(=O)Nc3ccc(C(=O)N[C@H](C)c4ccccc4)cc32)c1C (mixture of isomers) ?
130 µM
